- Tested on: SNB-75 CNS
- TEST_SUMMARY: NCI tumour cell line growth inhibition, 48 h; in the data active = GI50 below about 0.43 µM; inactive = the rest
Returns: one label drawn from 1 (yes) (active), 0 (no) (inactive)

Check the results log: what was the call for "CC(=O)[CH-]C(=O)c1ccccc1.CC(=O)[CH-]C(=O)c1ccccc1.[O-]Cc1cccs1.[O-]Cc1cccs1.[Ti+4]" ?
0 (no)

Recorded test outcome, item "C[C@@H](Oc1cc(-n2cnc3ccc(OCC4CCN(C)CC4)cc32)sc1C(N)=O)c1ccccc1C(F)(F)F"
1 (yes)

Fill in: this test's call for C=C1CCC2C3(C)COC(c4cccc(Cl)c4)OC3CCC2(C)C1/C=C/C1=CCOC1=O (centres undefined) is ___
0 (no)

Record lookup: outcome of this test for "Cn1cc(-c2nonc2-c2cn(C)c3ccc(Br)cc23)c2ccccc21" ?
0 (no)

----------
- Tested on: NCI-H226 lung
- TEST_SUMMARY: NCI tumour cell line growth inhibition, 48 h
Record form. Attribute: TGI. Fill in for each entry.

Using known records, supply TGI for "N#CCCN(CCC#N)c1ccc(/C=C2\N=C(c3ccccc3)N(NC(=O)c3ccncc3)C2=O)cc1"
> 100 µM

Return value of TGI for input COc1cc([C@@H]2c3cc4c(cc3[C@@H](N=Cc3ccc(C(=O)O[C@H]5C[C@H]6OC[C@@]6(OC(C)=O)[C@H]6[C@H](OC(=O)c7ccccc7)[C@]7(O)C[C@H](OC(=O)[C@H](OC(=O)c8ccc(C=N[C@@H]9c%10cc%11c(cc%10[C@@H](c%10cc(OC)c(O)c(OC)c%10)[C@H]%10C(=O)OC[C@@H]%109)OCO%11)cc8)[C@@H](NC(=O)c8ccccc8)c8ccccc8)C(C)=C([C@@H](OC(C)=O)C(=O)[C@]56C)C7(C)C)cc3)C3COC(=O)C32)OCO4)cc(C)c1O (stereo partly drawn) , no commentary.
> 50 µM

Read off the recorded TGI for "Nc1nc(SCC(=O)c2ccccc2)nc2nc3c(c(-c4ccccc4)c12)CCCC3"
62.7 µM

----------
- Test system: 786-0 renal
- TEST_SUMMARY: NCI tumour cell line growth inhibition, 48 h
REPORTED_PROPERTY: TGI

Look up and state reported TGI for "NC(=NCc1ccccc1)N/N=C\c1ccnc2ccccc12"
29.9 µM

Find the measured TGI of "CCOC(=O)c1cc(NC(=O)c2ccccc2)c(=O)n2c(cc3c(Cl)cccc32)c1O" and report it.
> 100 µM

Look up and state reported TGI for "COc1ccc(N=C/C=C/C(=C/COC(C)=O)OC(C)=O)cc1"
90 µM

Identify TGI associated with the compound "c1ccc(NC2(c3nnnn3C3CCCCC3)CCNCC2)cc1"
28.6 µM

Tell me TGI reported for CCCCCNC(=O)C1C(=O)N(CCCCC)C(=O)/C1=N\N (stereo unspecified)
> 100 µM

Look up and state reported TGI for "Nc1nccc(C#Cc2cncnc2Nc2ccc(OCc3cccc(F)c3)c(Cl)c2)n1"
> 20.1 µM

Please give measured TGI of the following entry: COc1ccc2c(c1)OCC1Cc3cccc(OC)c3OC21 (stereo unspecified)
> 100 µM

Specify measured TGI for "Nc1ccc(C(=O)O)c2[nH]c3ccccc3c(=O)c12" .
> 100 µM

Report measured TGI; entry is "COC(=O)/C=C1/OC(c2ccccc2)=CC1=O"
27.9 µM

Consider the compound "COC(=O)/C=C(\S/C(=C(/c1ccccc1)n1cc(C(=O)OC)c(C(=O)OC)n1)c1ccccc1)C(=O)OC" and give its recorded TGI.
> 100 µM

Complete the entry with TGI for "c1ccc(CNc2nc(Nc3ccc(-c4nc5ccccc5[nH]4)cc3)c3cn[nH]c3n2)cc1"
3.73 µM

Look up TGI of Cc1ccc(NC(=O)CCC(=O)C2CC(=O)CCC2=O)cc1C (stereo unspecified) and report it.
> 100 µM

For the compound "O=C(Nc1ccc(Cl)cc1)C(=O)C1=C(O)c2ccccc2OC1" , give its measured TGI value.
> 100 µM

Give reported TGI value for CC1(C)CC(C2CC(C)(C)CC(C)(C)[C@H]2O)[C@@H](O)C(C)(C)C1 (stereo partly specified)
> 100 µM

Supply measured TGI of "CN(N=O)C(N)=NC(=O)c1ccccc1" in your reply.
> 100 µM

Return TGI for the following compound: "c1ccc2c(-c3ccnc(-c4c[nH]c5ccccc45)n3)c[nH]c2c1"
4.6 µM

Please look at this compound and report its TGI: CC(=O)NC1C(OCc2ccccc2)OC(CO)C(O)C1OC(C)C(=O)NC(C(=O)NC(CCC(=O)Nc1ccc2c(c1)CN1C(=O)c3ccccc3C1=N2)C(N)=O)C(C)C (stereo unspecified)
> 100 µM

Recall and state the measured TGI for Nc1nc(Cl)c(N)c(NCC2(CO)CC(O)C2)n1 (stereo unspecified) .
> 100 µM

Identify the reported TGI for the following entry. O=C(NCCS(=O)(=O)N1C(=O)C2CCCN2C(=O)[C@@H]1Cc1ccccc1)OCc1ccccc1 (stereo partly specified)
> 100 µM

Output measured TGI for this item: "Cc1cc(N(CCC#N)CCC#N)ccc1N=Nc1ccc([N+](=O)[O-])cc1"
> 100 µM

Tell me its TGI given "CCOc1ccc(NC(=O)/C(=C/c2ccccc2)C(C)=O)cc1" as the entry.
24.8 µM
